Attribute: binding signal
ASSAY SYSTEM: T1, UNK ZnF1-3 (human, UniProt Q9C0B0 31-174)
T1 sequence: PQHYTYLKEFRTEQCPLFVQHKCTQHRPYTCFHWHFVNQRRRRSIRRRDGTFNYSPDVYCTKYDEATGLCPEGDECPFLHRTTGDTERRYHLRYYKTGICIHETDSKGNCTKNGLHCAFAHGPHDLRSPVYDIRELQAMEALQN
ASSAY OVERVIEW: nsRBNS (natural sequence RNA bind-n-seq); RBNS binding buffer (assumed for nsRBNS): 25 mM Tris pH 7.5, 150 mM KCl, 3 mM MgCl2, 0.01% Triton X-100, 500 ug/ml BSA, 20 U/ml SUPERase-In, 4 C; UNK is unkempt and MSI1 is Musashi-1; names of the RNAs are library labels; protein concentration not given here; high values mean tight binding
Over roughly 24,000 sequences, “enrichment r” has its median near 0.99; the highest 2% begin near 3.7. Only a sample is shown.
Write the value in enrichment R as a bare number.

# annotated cases, reported binding signal shown
[[record]]
binder = "chr7:135612270:135612271:-_ENSG00000105887_ENST00000393085|hu_mus|hu_hu_hu_mus_False|8_8 (ssRNA) RNA: GGGAGUUCUACAGUCCGACGAUCGUUUUUUUCUGAGAUGUUAAAUAGUACUUCAGUGGAAAACAAAACUUAACCUUUUAUUAAUGCGUGUUGUACCAAAAGCAGACAUUUUAGCUUCAUUUAUUCACUCAAAAUAUCAUUAAGCAACAGAGGAUUGAGCAUCA"
numeric_value = 0.523

[[record]]
binder = "chr9:62645482:62645483:-_ENSMUSG00000032244_ENSMUST00000034775|mus_hu|FALSE|FALSE (ssRNA) RNA: GGGAGUUCUACAGUCCGACGAUCUACUGUGGUAUGGUUCACGUUGGCUCCAUGGCUGACUAGAAGUUUAACAACUUCAAAAUGUCCUGCUCCAGCUGCACACCAAAGAGCAGUGGCACCAUCAAUGACAUACCCGUCGAAGCGCAACAGAGGAUUGAGCAUCA"
numeric_value = 0.893


We next turn to a different binder, shown below.
Fill in: binding signal of chr16:94690093:94690094:+_ENSMUSG00000040785_ENSMUST00000117648|mus_hu|mus_mus_mus_hu_True|28_38 (ssRNA) RNA: GGGAGUUCUACAGUCCGACGAUCGGGCUGGGAUGACGGACACACAGCCUCGAUUCCAGGGGGAAAAAGUCUUAGUCGAUACUAAUUAAAAAGUGUUUUUAUAAUUGAUUACCAAAAUUACAUCUAUAAAAGAUGAAAAGCAAACAACAGAGGAUUGAGCAUCA is ___
1.26
